// IC50 lookup, one value per entry
target: human TrxR1 (Homo sapiens); assay: Isolated TrxR1 inhibition (DTNB assay); settings: 75 min incubation at 37 °C
Sequence (Q16881 151-649): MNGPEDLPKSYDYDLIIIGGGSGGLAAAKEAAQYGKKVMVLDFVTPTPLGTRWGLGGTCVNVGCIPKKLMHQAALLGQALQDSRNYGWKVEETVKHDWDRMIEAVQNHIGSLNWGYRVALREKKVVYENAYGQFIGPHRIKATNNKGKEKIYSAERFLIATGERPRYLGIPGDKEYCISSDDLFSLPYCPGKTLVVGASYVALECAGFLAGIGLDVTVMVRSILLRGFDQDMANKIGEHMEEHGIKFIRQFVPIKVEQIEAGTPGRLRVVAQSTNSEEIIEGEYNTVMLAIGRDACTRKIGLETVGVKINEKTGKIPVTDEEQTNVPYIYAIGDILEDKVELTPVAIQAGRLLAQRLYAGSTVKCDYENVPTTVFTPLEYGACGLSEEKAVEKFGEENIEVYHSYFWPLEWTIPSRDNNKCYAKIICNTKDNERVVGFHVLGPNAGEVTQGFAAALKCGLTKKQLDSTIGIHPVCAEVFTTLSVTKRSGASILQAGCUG
Attribute Measured: IC50 (nM)

* Cc1cc(C)c(-n2ccn(CCOC(=O)NCCN)[c]2=[Au-3]=[c]2n(-c3c(C(C)C)cccc3C(C)C)c3c(n2-c2c(C(C)C)cccc2C(C)C)C(=O)c2ccccc2C3=O)c(C)c1.O=C([O-])C(F)(F)F | 1620
* Cc1ccc(C(C)C)cc1.O=C(O)c1ccc(NC(=S)c2ccccn2)cc1.[Cl-].[Cl][Ru+] | 3440
* CC(=O)OC[C@H]1O[C@@H]([S-])[C@H](OC(C)=O)[C@@H](OC(C)=O)[C@@H]1OC(C)=O.CCP(CC)CC.[Au+] [Auranofin, reference compound] | 60
* O=C1[O][Pt]2([NH][C@@H]3CCCC[C@H]3[NH]2)[O]C1=O [Oxa, oxaliplatin, reference compound] | 25600

###

molecular target: human TrxR2 (Homo sapiens, UniProt Q9NNW7); test: Isolated TrxR2 inhibition (DTNB assay); conditions: 75 min incubation at 37 °C
Sequence (Q9NNW7 37-524): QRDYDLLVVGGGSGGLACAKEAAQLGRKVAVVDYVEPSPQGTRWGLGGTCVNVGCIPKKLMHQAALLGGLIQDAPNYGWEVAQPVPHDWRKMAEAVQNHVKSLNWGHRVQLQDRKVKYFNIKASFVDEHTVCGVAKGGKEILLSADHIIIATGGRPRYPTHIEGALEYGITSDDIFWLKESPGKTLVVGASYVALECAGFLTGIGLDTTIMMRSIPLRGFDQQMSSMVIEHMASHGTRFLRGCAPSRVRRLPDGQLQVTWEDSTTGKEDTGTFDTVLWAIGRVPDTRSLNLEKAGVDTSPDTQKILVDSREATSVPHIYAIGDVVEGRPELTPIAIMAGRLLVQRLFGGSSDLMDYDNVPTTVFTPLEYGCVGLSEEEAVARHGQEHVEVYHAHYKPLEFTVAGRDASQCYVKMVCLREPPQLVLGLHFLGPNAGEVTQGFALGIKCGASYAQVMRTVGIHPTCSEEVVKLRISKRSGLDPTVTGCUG
pIC50: −log10 of the molar value.
Attribute Measured: pIC50

* O=C1[O][Pt]2([NH][C@@H]3CCCC[C@H]3[NH]2)[O]C1=O [Oxa, oxaliplatin, reference compound] | 4.55
* CC(=O)OC[C@H]1O[C@@H]([S-])[C@H](OC(C)=O)[C@@H](OC(C)=O)[C@@H]1OC(C)=O.CCP(CC)CC.[Au+] [Auranofin, reference compound] | 6.66
* Cc1cc(C)c(-n2ccn(CCOC(=O)NCCN)[c]2=[Au-3]=[c]2n(-c3c(C(C)C)cccc3C(C)C)c3c(n2-c2c(C(C)C)cccc2C(C)C)C(=O)c2ccccc2C3=O)c(C)c1.O=C([O-])C(F)(F)F | 5.90
* Cc1ccc(C(C)C)cc1.O=C(O)c1ccc(NC(=S)c2ccccn2)cc1.[Cl-].[Cl][Ru+] | 5.36

###

tested on: A375 (melanoma); experiment: Antiproliferative MTT assay, A375; type: cell-based, human; details: A375, 72 h incubation
Attribute Measured: IC50

* Cc1ccc(C(C)C)cc1.O=C(O)c1ccc(NC(=S)c2ccccn2)cc1.[Cl-].[Cl][Ru+] | > 40 µM
* O=C1[O][Pt]2([NH][C@@H]3CCCC[C@H]3[NH]2)[O]C1=O [Oxa, oxaliplatin, reference compound] | 3.16 µM
* Cc1cc(C)c(-n2ccn(CCOC(=O)NCCN)[c]2=[Au-3]=[c]2n(-c3c(C(C)C)cccc3C(C)C)c3c(n2-c2c(C(C)C)cccc2C(C)C)C(=O)c2ccccc2C3=O)c(C)c1.O=C([O-])C(F)(F)F | 2.48 µM
